Where these numbers come from: patent US10590130B2

# assay-overview: Human hepatocyte assay (metabolic stability)
# Type: in vitro ADME
# study-conditions: human hepatocytes, in vitro intrinsic clearance
test-readout: Clint (μL/min/10^6 cells)

C[C@@H]1Cc2c(ccc3[nH]ncc23)[C@@H](c2ncc(NC3CN(CCCF)C3)cc2F)N1CC1(F)CC1: 3
C[C@@H]1Cc2c(ccc3[nH]ncc23)[C@@H](c2ccc(NC3CN(CCCF)C3)cn2)N1CC(F)(F)F: 6
COc1cc(NC2CN(CCCF)C2)ccc1[C@@H]1c2ccc3[nH]ncc3c2C[C@@H](C)N1CC(F)F: 6

1: C[C@@H]1Cc2c(ccc3[nH]ncc23)[C@@H](c2c(F)cc(NC3CN(CCCF)C3)cc2F)N1CC1(F)CC1
2: COc1cc(NC2CN(CCCF)C2)ccc1[C@@H]1c2ccc3[nH]ncc3c2C[C@@H](C)N1CC1(F)CC1
Enquiry: Select the item whose Clint value is smaller, choosing between 1 and 2 . State the label of the item chosen.
Return: 2
